Quick list: IC50 per entry.
- assayed.target: GCase (Homo sapiens, UniProt P04062)
- Sequence (P04062 40-536): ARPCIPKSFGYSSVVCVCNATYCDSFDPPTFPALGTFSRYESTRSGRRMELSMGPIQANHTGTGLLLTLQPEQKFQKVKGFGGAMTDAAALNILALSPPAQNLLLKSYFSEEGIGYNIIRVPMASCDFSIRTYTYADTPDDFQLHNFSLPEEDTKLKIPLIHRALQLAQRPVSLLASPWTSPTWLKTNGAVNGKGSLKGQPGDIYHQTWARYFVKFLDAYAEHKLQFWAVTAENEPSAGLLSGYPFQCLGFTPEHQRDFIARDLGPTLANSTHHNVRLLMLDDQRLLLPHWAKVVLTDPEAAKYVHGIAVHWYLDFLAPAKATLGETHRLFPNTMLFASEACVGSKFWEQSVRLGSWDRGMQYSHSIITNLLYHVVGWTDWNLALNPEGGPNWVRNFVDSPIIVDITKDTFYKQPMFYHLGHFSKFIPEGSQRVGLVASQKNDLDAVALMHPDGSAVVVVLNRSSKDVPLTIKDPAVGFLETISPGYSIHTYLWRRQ
- protocol.notes: Inhibitory activity against GCase (4-methylumbelliferyl β-glucoside substrate)
- Assay type: biochemical
- condition.label: human GCase, 3 mM 4-MU β-glucoside, pH 5.2, 37° C., 30 min

# smiles.data, IC50
rows = [
    ("CC(C)(C)CCc1cn2c(n1)[C@H](O)[C@@H](O)[C@H](O)[C@H]2CO", "0.03 nM"),
    ("CCCCCCCCc1cn2c(n1)[C@H](O)[C@@H](O)[C@H](O)[C@H]2CO", "0.07 nM"),
    ("OC[C@@H]1[C@@H](O)[C@H](O)[C@@H](O)c2nccn21", "87 nM"),
    ("OC[C@@H]1[C@@H](O)[C@H](O)[C@@H](O)c2nc(CCc3ccccc3)cn21", "1.1 nM"),
]
